GI50, HCT-15: measured values

compound	system under test	GI50
CC1(c2cc3c(cc2Br)OCO3)SCCCS1	HCT-15	38.7 µM
CCSCCCC(=O)O	HCT-15	> 100 µM
O=C1CNc2cc(N3CCOCC3)ccc2N1	HCT-15	> 100 µM
CCOC(=O)C1Nc2ccccc2[C@H]2OCC[C@@H]12 (stereo not given in full)	HCT-15	> 100 µM
CN1CCN(CCCN)CC1	HCT-15	> 100 µM
CCOC(=O)C(NC(=O)CC)(Nc1ccc(S(=O)(=O)Nc2onc(C)c2C)cc1)C(F)(F)F (stereo not given)	HCT-15	> 100 µM
CCOC(=O)c1ccc(NCc2ccc3nc(OC)c(OC)nc3c2)cc1	HCT-15	> 100 µM
COC(=O)C1=C(C)NC(C)=C([N+](=O)[O-])C1c1cccc(N=O)c1 (stereo not given)	HCT-15	14.2 µM
COc1ccc(NC(=O)CC(=O)N/N=C/c2ccc(N(CCC#N)S(=O)(=O)c3ccccc3)cc2)cc1	HCT-15	> 100 µM
CC(C)C(C/C=C1/CC(CO)(COC(=O)C(C)(C)C)OC1=O)C(C)C (stereo not given)	HCT-15	16.9 µM

###

System: 786-0
Experiment: NCI tumour cell line growth inhibition, 48 h
Activity calls are given as the source filed them. No stated cut-off is given here; in the data, active = GI50 up to about 1.1 µM and inactive = higher.
endpoint name: GI50

compound	system under test	endpoint name	result
CCc1ccccc1NC(=O)CCc1n[nH]c(=S)o1	786-0	GI50	> 100 µM (inactive)
O=C1c2ccccc2C(=O)N1CCSCC(CO)SCCN1C(=O)c2ccccc2C1=O (centres undefined)	786-0	GI50	> 100 µM (inactive)
COC(=O)/C(C#N)=C1\NN=NN1CCCc1ccccc1	786-0	GI50	> 100 µM (inactive)
COc1ccc(NC(=O)CC(=O)N2N=C(C)C(/N=N/c3ccc(C(=O)O)cc3)C2=O)cc1 (centres undefined)	786-0	GI50	> 100 µM (inactive)
O=C1c2ccccc2C2(O)Oc3cccc(O)c3C12O (centres undefined)	786-0	GI50	> 100 µM (inactive)
CCn1c2ccccc2c2ccc(C3C(C(=O)OC)=C(C)NC(C)=C3C(=O)OC)cc21	786-0	GI50	38.2 µM (inactive)
CN(C)/C=N/c1ccc2c3c(cccc13)-c1ccccc1-2	786-0	GI50	12.6 µM (inactive)
O=C(NNc1ccc([N+](=O)[O-])cc1[N+](=O)[O-])/C(O)=C\C(=O)c1ccccc1	786-0	GI50	13.2 µM (inactive)
CC(=O)OCC(=O)O[C@@H]1[C@H]2[C@@H](OC(=O)c3ccccc3)[C@@H](C)C[C@]2(O)[C@H](OC(C)=O)[C@@]2(C)C(OC(C)=O)[C@]1(OC(C)=O)C[C@H]1C(=O)C(C)(C)C[C@@H]12 (some centres undefined)	786-0	GI50	> 50 µM (inactive)

###

Tested on: DU-145
Experiment: NCI tumour cell line growth inhibition, 48 h
Calls of active or inactive are those of the source. No stated cut-off is given here; in the data, active = GI50 up to about 1.1 µM and inactive = higher.
This section presents compounds with their documented GI50 values.

compound	GI50
CC(C)(C)c1ccc(OCCOc2ccc(C(C)(C)C)cc2N)c(N)c1	> 100 µM (inactive)
CC(C)(C)NC(=O)CCC1C(C(=O)NC(C)(C)C)C2(Cl)C(Cl)=C(Cl)C1(Cl)C2(Cl)Cl (stereo not drawn)	> 100 µM (inactive)
CCCCc1cc2c(C)cc(=O)oc2c(O)c1O	32.2 µM (inactive)
COC(=O)[C@@]1(C)CCC[C@]2(C(=O)O)C3Cc4occc4[C@H](C)[C@@H]3CCC21 (stereo partly drawn)	44.2 µM (inactive)
O=C(O[C@H]1[C@@H](O)[C@H](n2cnc3c(Cl)ncnc32)O[C@@H]1COC(c1ccccc1)(c1ccccc1)c1ccccc1)c1ccccc1	1.91 µM (inactive)
N#Cc1c(-c2ccccc2)cc(-c2ccccc2)n(C2OCC(O)C(O)C2O)c1=S (stereo not drawn)	19.7 µM (inactive)
CCNC(=S)N/N=C1\C(=O)Nc2ccc([N+](=O)[O-])cc21	33 µM (inactive)
C#C[C@]1(O)CC[C@H]2[C@@H]3CCC4=C/C(=N/NC(=O)c5cccc6cc7ccccc7nc56)CC[C@@H]4[C@H]3CC[C@@]21CC	> 100 µM (inactive)
O=C1Oc2ccccc2C(=O)/C1=C/NC(=S)NCCc1ccccc1	23.4 µM (inactive)
COc1cc(C2c3cc4c(cc3OC(NCCO)C2C)OCO4)cc(OC)c1O (stereo not drawn)	9.79 µM (inactive)
COc1ccc2[nH]cc(CCNC(=O)[C@H](Cc3ccccc3)NC(=O)[C@@H](NCC(F)(F)F)C(C)C)c2c1	18.3 µM (inactive)
Cc1csc(-n2c(C)nc3cc(Cl)ccc3c2=O)n1	> 100 µM (inactive)
Cc1cc(S(=O)(=O)NC2=NNC(C)CN2)c(S)cc1Cl (stereo not drawn)	75.7 µM (inactive)
CC(C(O)c1ccccc1)C(O)(C(F)(F)F)C(F)(F)F (stereo not drawn)	> 100 µM (inactive)
Cc1cc2nc3ccc(N(C)C)cc3[s+]c2cc1N [TOLONIUM CHLORIDE]	15.7 µM (inactive)
CCOC(=O)c1ccc(-n2cnc(-c3ccc([N+](=O)[O-])cc3)c2)cc1	> 100 µM (inactive)
COc1cc(O)c(C(=O)/C=C/c2ccc(O)cc2)cc1Oc1ccc(C(=O)/C=C/c2ccc(O)cc2)c(O)c1 [RHUSCHALCONE IV]	2.29 µM (inactive)
Clc1ccc(OCC2NC3CCC2CC3)cn1 (stereo not drawn)	59.3 µM (inactive)
